Overview of reported PBM binding z-score across a group of sequences:
# Tested on: THRa:RXRa (NR concentration 90 nM, RXRa partner concentration 90 nM)
# test-method-notes: PBM binding z-score (relative to random genomic background probes); higher = stronger binding; sequences stand for … in GC…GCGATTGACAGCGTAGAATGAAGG

Answered examples (2):
CCAGACGGGTGAAAGGTAACTCAGTCTGGTACGC | 0.461
CGTCCAACGTCAATGCTAGGTCAGTGAAAGCATT | 1.6

PBM binding z-score for ACTCGGAAGACAAAGGTCAGAGCTACGCCAGTGA is 2.57

PBM binding z-score for CGTCAAAGTTCAACTAAGGTAAGGTAAAGCACGC is 5.19

PBM binding z-score for AATACAGGGTCACTAGGCCAGAATAGGTACGAAT is 3.41

PBM binding z-score for TAGCCTGGGTCATGGGCCAGTATACCACGCGAAC is 2.39

PBM binding z-score for ATCGAAGGGTCGACGAGGTGAGTATACACCGTTT is 2.86

PBM binding z-score for CCTTACGGGTCAAGGTCATAGCACGGGTGGTACG is 4.18

PBM binding z-score for GGAACGAGGGCAAAATTGATAGCATCTGTCGACG is 0.648

PBM binding z-score for TCGTGTAGATCAGCAGGTTAAGAAAGCTGGCCAA is 0.0652

----------
# System: RARg homodimer (NR concentration 270 nM)
# test-method-notes: PBM binding z-score (relative to random genomic background probes); higher = stronger binding; sequences stand for … in GC…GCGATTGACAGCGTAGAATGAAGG
Overview of reported PBM binding z-score across a group of sequences:
# print the numeric value only

Answered examples (3):
GCTGCTAGGTCTGGTTGGTCAGCTAACGGGTACG | -0.564
TAGCCTACGTCAGATCGGGCCAGTATACGCTATA | -0.517
CCTAGCGGGCCAATCTGGGTCACTCAAGGCTTGA | 0.984

PBM binding z-score for CGAACTAGGTCATCTAGGACAGTGAATACATTGA is 4.96

PBM binding z-score for CCTACTGGGCCAAAGGTCATTTATTCCAATGCTC is 4.03

PBM binding z-score for AGAATGAGGTTATACGTAGATCAGTGAAGAAAGT is 1.14

----------
# Test system: PPARg:RXRa 30nM:10nM, anti-RXR (NR concentration 30 nM, RXRa partner concentration 10 nM)
# test-method-notes: PBM binding z-score (relative to random genomic background probes); higher = stronger binding; sequences stand for … in GC…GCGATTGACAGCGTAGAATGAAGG
Label rule, in plain words: PBM binding z-score of 0.1 and up is Yes, under 0.1 is No.

Some entries whose results are on file:
AGAACGACGGCACGCTGAGTTGATAGCAGAGTAG | No
CCAGACAGATGAGAAGGTAACTCAGCCTCGATTA | No
CTCCAAAGGTCGTGCTCAGGTGAGTATACCAAAC | Yes
TTACCAAGGTGAGCTGAGATCGTTGATCCAACTC | No

Continue with the next sequence.
Answer whether PBM binding z-score of AGAACGAGGGCACGCTGAGTTGGTAGCAGAGTAG is greater than or equal to 0.1. No

----------
# Tested on: PPARg homodimer (NR concentration 180 nM)
# test-method-notes: PBM binding z-score (relative to random genomic background probes); higher = stronger binding; sequences stand for … in GC…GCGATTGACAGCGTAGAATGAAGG
reported-metric: PBM binding z-score

CGTCCAAGGTCGTAGGAGGTCAGTGAAGACAGAT | 2.21
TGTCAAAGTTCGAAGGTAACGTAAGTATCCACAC | 0.387
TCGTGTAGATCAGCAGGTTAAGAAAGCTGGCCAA | 0.306
GCTGCTAGGTCAACTGATGGTCAGCTGAAGCTCG | 1.06
TCATGTAGGTAAAAGGTGAAAGTCGGTGTGGTAA | 2.48

PBM binding z-score for TCTGCTAGGTCAGTTGCTCAGCTAACGAGCTGCC is -0.987

PBM binding z-score for TCTGCTAGGTAAACGATGGTCAGCTAATCTGCTA is -1.72

PBM binding z-score for TAGCTTAGGTCATGCGGGCCAGTATAGTGTCGGC is 1.44

PBM binding z-score for ATATGTAGGTTAAGGCTCATTCAGGTTGGTTCGC is 2.08

PBM binding z-score for ACTAGCAGGCCAGGTTTGGGTCACTCAAACAAAG is 0.235

PBM binding z-score for CCTCCTGGGCCAAAAAGGTCATTGATGCCGATAA is 2.51

PBM binding z-score for TAGCCTAGGTCACTGGGCCAGTATAGTACGCATC is 0.976

----------
# System: LXRa:RXRa (NR concentration 270 nM, RXRa partner concentration 90 nM)
# test-method-notes: PBM binding z-score (relative to random genomic background probes); higher = stronger binding; sequences stand for … in GC…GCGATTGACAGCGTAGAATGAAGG
Label rule, in plain words: PBM binding z-score of 0.5 and up is MET, under 0.5 is NOT MET.

CGTCCAAGGTCATAGAAGGTCAGTGAAGACAGAT | MET
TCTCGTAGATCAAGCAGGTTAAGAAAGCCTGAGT | NOT MET
ATCTCTAGGTAAGAATCAGTTCAGTGAAGAACGC | MET
ATCTCTAGGTAAGGCTCAGTTCAGTGAAGAACGC | NOT MET
CCGACTGCGGCATAAGGTTACCATAAGCCAGCCC | MET

Answer whether PBM binding z-score of CCGACTGAGGCAAGGTTACCATAACGCACAGCCA is greater than or equal to 0.5. MET

Answer whether PBM binding z-score of ATCTCTAGGTAACAAGTTCAGTGAGAGAGAGGAC is greater than or equal to 0.5. MET

Answer whether PBM binding z-score of TCGAGTAGGTTAGGGGCATTCAAAATGGCGTCGA is greater than or equal to 0.5. MET

Answer whether PBM binding z-score of ACTTACGGGTTAACGAGGTTATAGCACGCGTATA is greater than or equal to 0.5. MET

Answer whether PBM binding z-score of CCTGACAGGTGAAAGGTAACTCAGTCTGGTACGC is greater than or equal to 0.5. MET

Answer whether PBM binding z-score of TAGCCTAGGTCAGATGGGGCCAGTATACGCTATA is greater than or equal to 0.5. MET

Answer whether PBM binding z-score of GCGACTTGGGCATCAGCAGGTTACCATAACTTAA is greater than or equal to 0.5. NOT MET

----------
# Tested on: RXRa homodimer (NR concentration 180 nM)
# test-method-notes: PBM binding z-score (relative to random genomic background probes); higher = stronger binding; sequences stand for … in GC…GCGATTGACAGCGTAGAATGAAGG
Label rule, in plain words: PBM binding z-score of 0.9 and up is met, under 0.9 is not met.

GCTTGTAGCTCAAGGTTAAGAAAGACTAAGCTAA | not met
GGAACGATGGCATTCGAGTTGATAGCATGGCGAT | not met
CCCTACGGGTCACTGACAGGTTATAGCATTTGGA | met
CCTTACGGGTCACTCCAGGTTACAGCATCGGAGT | met
ACAGACAGGTGACGAAGGTAACTCAGGCTATCAT | not met

Answer whether PBM binding z-score of TCGAGTAGGTTAGGGGCATACAGAATGGCGTCGA is greater than or equal to 0.9. met

Answer whether PBM binding z-score of CAAACTAGGTCAGGAAAGGTCAAAGTCGAATGAC is greater than or equal to 0.9. met

Answer whether PBM binding z-score of CCGAGTAGGTTATGGGGCATTCCGGCAACGGTGA is greater than or equal to 0.9. not met

Answer whether PBM binding z-score of GATACAGGGTCAGCTAGAGGCCCGAGTATGGAAA is greater than or equal to 0.9. met

Answer whether PBM binding z-score of GCAGACAGGTGAGACGCAGGTAACTCAGGGTGGC is greater than or equal to 0.9. not met

Answer whether PBM binding z-score of TTATATAGGTAAACAGGTGAAAGTCCGTAAGTTA is greater than or equal to 0.9. met

Answer whether PBM binding z-score of ACTCACGGGTCAACGAGGTTATAGCACGCGTATA is greater than or equal to 0.9. met

----------
# System: RXRa homodimer (NR concentration 180 nM)
# test-method-notes: PBM binding z-score (relative to random genomic background probes); higher = stronger binding; sequences stand for … in GC…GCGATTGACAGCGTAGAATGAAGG
Label rule, in plain words: PBM binding z-score of 0.9 and up is 1, under 0.9 is 0.

Some entries whose results are on file:
CCTTACGGGGCACTGACAGGTTATAGCATTTGGA | 0
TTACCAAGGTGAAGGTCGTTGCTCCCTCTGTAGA | 1
ATCGAAAGGTAGTGAGGTGAGTATACAGAAAGGC | 0
CCTTACGGGTCACTCCAGGCTATAGCATCGGAGT | 1
CATATTAGTTGACCATAAGGGCAACCGAAGCTCG | 1
CGAAGTAGGTCATCCAGGACAGTGAATACATTGA | 1
TCGAGAAGGTTAGGGGCATTCAGAATGGCGTCGA | 1
TCATATAGGTAATGCAGGTGAAAGTCGGCATCTA | 1
GGAACGAGGCCAAAGTTGATAGCATCTGTCGACG | 0

Continue with the next sequence.
Answer whether PBM binding z-score of CCGAGTGGGTTATGGGGCATTCAGGCAACGGTGA is greater than or equal to 0.9. 0
